# Tested on: MCF7
# methodSummary: Cytotoxicity against human MCF7 cells after 7 days by MTT assay
# Type: functional
# testParameters: MCF7, 168 h, read-out: ED50 (the source's name)
attributeMeasured: EC50 (µg/mL)
Give the value, in units of µg/mL, as a plain number.

>>> val("CCCCCCCCCCCCCC[C@H](O)[C@H]1CC[C@H]([C@H](O)CC[C@H](O)CCCCC[C@@H]2CC(CC(C)=O)C(=O)O2)O1 (mixture of isomers)")
0.186
>>> val("CCCCCCCCCCCCCC[C@@H](O)[C@H]1CC[C@H]([C@H](O)CC[C@H](O)CCCCC[C@@H]2CC(CC(C)=O)C(=O)O2)O1 (mixture of isomers)")
0.967

Ask: Endpoint output: EC50 of COc1cccc2c1C(=O)c1c(O)c3c(c(O)c1C2=O)C[C@@](O)(C(=O)CO)C[C@@H]3O[C@H]1C[C@H](N)[C@H](O)[C@H](C)O1 [DOXORUBICIN] . Value?
Result: 0.329

Measured values drawn from ChEMBL document CHEMBL1159290 for this set.
